Numbers sourced from patent US9944608B2.

# Tested on: Setaria faberi (SETFA)
# test_description: B1 Post-emergence efficacy, glasshouse pot test
# Assay type: in vivo
# conditions: post-emergence application, 1000 g/ha, evaluated after 13 days
# Method: B1 Post-Emergence Efficacy Seeds of a variety of test species are sown in standard soil in pots:—Solanum nigrum (SOLNI), Amaranthus retoflexus (AMARE), Setaria faberi (SETFA), Alopecurus myosuroides (ALOMY), Echinochloa crus-galli (ECHCG), Ipomoea hederacea (IPOHE), Lolium perenne (LOLPE). […] After 13 days, the test is evaluated for the percentage damage caused to the plant. The biological activities are assessed on a five point scale (5=80-100%; 4=60-79%; 3=40-59%; 2=20-39%; 1=0-19%). […]
measure_name: SETFA: percentage damage caused to the plant (five point scale)

-- ask Recorded SETFA: percentage damage caused to the plant (five point scale) for `Cc1nn(C)c(=O)c(-c2c(Cl)cccc2OCc2ccccc2)c1O` with Setaria faberi (SETFA), please?
-- reply 4 (4=60-79%)

-- ask Recorded SETFA: percentage damage caused to the plant (five point scale) for `Cc1nn(C)c(=O)c(-c2cccc(Cl)c2OCc2ccccc2)c1O` with Setaria faberi (SETFA), please?
-- reply 3 (3=40-59%)

-- ask Recorded SETFA: percentage damage caused to the plant (five point scale) for `C#CCn1nc(C)c(O)c(-c2c(F)ccc(Cl)c2OCc2ccccc2)c1=O` with Setaria faberi (SETFA), please?
-- reply 5 (5=80-100%)

-- ask Recorded SETFA: percentage damage caused to the plant (five point scale) for `Cc1nn(C)c(=O)c(-c2ccccc2OCc2ccccc2)c1O` with Setaria faberi (SETFA), please?
-- reply 1 (1=0-19%)

-- ask Recorded SETFA: percentage damage caused to the plant (five point scale) for `Cc1nn(C)c(=O)c(-c2c(Cl)ccc(F)c2OCc2ccccc2)c1O` with Setaria faberi (SETFA), please?
-- reply 5 (5=80-100%)

-- ask Recorded SETFA: percentage damage caused to the plant (five point scale) for `Cc1nn(C)c(=O)c(-c2c(F)ccc(Cl)c2OCc2ccccc2)c1O` with Setaria faberi (SETFA), please?
-- reply 5 (5=80-100%)

-- ask Recorded SETFA: percentage damage caused to the plant (five point scale) for `Cc1nn(C)c(=O)c(-c2c(Cl)ccc(Cl)c2OCc2ccc(Cl)c(Cl)c2)c1O` with Setaria faberi (SETFA), please?
-- reply 5 (5=80-100%)

-- ask Recorded SETFA: percentage damage caused to the plant (five point scale) for `Cn1nc(C2CC2)c(O)c(-c2c(F)ccc(Cl)c2OCc2ccccc2)c1=O` with Setaria faberi (SETFA), please?
-- reply 5 (5=80-100%)

-- ask Recorded SETFA: percentage damage caused to the plant (five point scale) for Cn1nc([S+](C)[O-])c(O)c(-c2c(Cl)ccc(Cl)c2OCc2ccccc2)c1=O (stereo not shown) with Setaria faberi (SETFA), please?
-- reply 3 (3=40-59%)

-- ask Recorded SETFA: percentage damage caused to the plant (five point scale) for `Cn1nc(S(C)(=O)=O)c(O)c(-c2c(F)ccc(Cl)c2OCc2ccccc2)c1=O` with Setaria faberi (SETFA), please?
-- reply 1 (1=0-19%)

-- ask Recorded SETFA: percentage damage caused to the plant (five point scale) for `CSc1nn(C)c(=O)c(-c2c(Cl)ccc(Cl)c2OCc2ccccc2)c1O` with Setaria faberi (SETFA), please?
-- reply 4 (4=60-79%)

-- ask Recorded SETFA: percentage damage caused to the plant (five point scale) for `CCc1nn(C)c(=O)c(-c2c(Cl)ccc(Cl)c2OCc2ccccc2)c1O` with Setaria faberi (SETFA), please?
-- reply 5 (5=80-100%)

-- ask Recorded SETFA: percentage damage caused to the plant (five point scale) for `CCn1nc(C)c(O)c(-c2c(F)ccc(Cl)c2OCc2ccccc2)c1=O` with Setaria faberi (SETFA), please?
-- reply 4 (4=60-79%)

-- ask Recorded SETFA: percentage damage caused to the plant (five point scale) for `Cc1nn(C)c(=O)c(-c2c(F)ccc(F)c2OCc2ccccc2)c1O` with Setaria faberi (SETFA), please?
-- reply 5 (5=80-100%)

-- ask Recorded SETFA: percentage damage caused to the plant (five point scale) for `Cc1nn(C)c(=O)c(-c2c(Cl)cc(Cl)cc2OCc2ccccc2)c1O` with Setaria faberi (SETFA), please?
-- reply 3 (3=40-59%)

-- ask Recorded SETFA: percentage damage caused to the plant (five point scale) for `Cn1nc(N)c(O)c(-c2c(Cl)ccc(Cl)c2OCc2ccccc2)c1=O` with Setaria faberi (SETFA), please?
-- reply 4 (4=60-79%)

-- ask Recorded SETFA: percentage damage caused to the plant (five point scale) for `Cc1nn(C2CC2)c(=O)c(-c2c(F)ccc(Cl)c2OCc2ccccc2)c1O` with Setaria faberi (SETFA), please?
-- reply 5 (5=80-100%)

-- ask Recorded SETFA: percentage damage caused to the plant (five point scale) for `Cn1nc(S(C)(=O)=O)c(O)c(-c2c(Cl)ccc(Cl)c2OCc2ccccc2)c1=O` with Setaria faberi (SETFA), please?
-- reply 2 (2=20-39%)

-- ask Recorded SETFA: percentage damage caused to the plant (five point scale) for `Cn1nc(N)c(O)c(-c2c(F)ccc(Cl)c2OCc2ccccc2)c1=O` with Setaria faberi (SETFA), please?
-- reply 3 (3=40-59%)

-- ask Recorded SETFA: percentage damage caused to the plant (five point scale) for `Cn1nc(C(F)(F)F)c(O)c(-c2c(C(F)(F)F)ccc(Cl)c2OCc2ccccc2)c1=O` with Setaria faberi (SETFA), please?
-- reply 5 (5=80-100%)

-- ask Recorded SETFA: percentage damage caused to the plant (five point scale) for `Cn1nc(C2CC2)c(O)c(-c2c(Cl)ccc(Cl)c2OCc2ccccc2)c1=O` with Setaria faberi (SETFA), please?
-- reply 5 (5=80-100%)

-- ask Recorded SETFA: percentage damage caused to the plant (five point scale) for `CN(C)c1nn(C)c(=O)c(-c2c(Cl)ccc(Cl)c2OCc2ccccc2)c1O` with Setaria faberi (SETFA), please?
-- reply 5 (5=80-100%)

-- ask Recorded SETFA: percentage damage caused to the plant (five point scale) for `Cn1nc(C(F)(F)F)c(O)c(-c2c(F)ccc(Cl)c2OCc2ccccc2)c1=O` with Setaria faberi (SETFA), please?
-- reply 5 (5=80-100%)

-- ask Recorded SETFA: percentage damage caused to the plant (five point scale) for `Cn1nc(C(F)(F)F)c(O)c(-c2c(Cl)ccc(Cl)c2OCc2ccccc2)c1=O` with Setaria faberi (SETFA), please?
-- reply 5 (5=80-100%)

-- ask Recorded SETFA: percentage damage caused to the plant (five point scale) for `COc1ccc(COc2c(Cl)ccc(Cl)c2-c2c(O)c(C)nn(C)c2=O)cc1` with Setaria faberi (SETFA), please?
-- reply 5 (5=80-100%)

-- ask Recorded SETFA: percentage damage caused to the plant (five point scale) for `CSc1nn(C)c(=O)c(-c2c(F)ccc(Cl)c2OCc2ccccc2)c1O` with Setaria faberi (SETFA), please?
-- reply 2 (2=20-39%)

-- ask Recorded SETFA: percentage damage caused to the plant (five point scale) for `Cc1nn(C2CC2)c(=O)c(-c2c(Cl)ccc(Cl)c2OCc2ccccc2)c1O` with Setaria faberi (SETFA), please?
-- reply 5 (5=80-100%)

-- ask Recorded SETFA: percentage damage caused to the plant (five point scale) for `Cc1ccc(Cl)c(OCc2ccccc2)c1-c1c(O)c(C)nn(C)c1=O` with Setaria faberi (SETFA), please?
-- reply 5 (5=80-100%)
